Assay: Pharmacokinetic experiment, oral capsules in Beagle dogs
Type: in vivo
Conditions: dog, plasma, male Beagle dogs, 5 mg/kg
property.name: AUC(0-t) (ng·h/mL)
# output: bare number, implied unit ng·h/mL

Inquiry: GET /values?readout=AUC(0-t)&item= O=C(O)c1ccc2c(c1)Oc1ccc(OCc3c(-c4c(Cl)cccc4Cl)noc3C3CC3)nc1C1(CC1)C2 [crystal form J]
Reply text: 885

---

Assay: Pharmacokinetic experiment, oral capsules in Beagle dogs
Format: in vivo
Settings: dog, plasma, male Beagle dogs, 5 mg/kg
property.name: Cmax (ng/mL)
Your answer should be a plain number; it is taken to be in ng/mL.

Inquiry: Record request: Cmax value, item O=C(O)c1ccc2c(c1)Oc1ccc(OCc3c(-c4c(Cl)cccc4Cl)noc3C3CC3)nc1C1(CC1)C2 [crystal form J]
Reply text: 554

Cited source: patent US20250268871A1
